GI50: recorded values
Tested on: A549
Assay: NCI tumour cell line growth inhibition, 48 h
The source made the active and inactive calls. Rule as the data show it: active = GI50 up to about 1.1 µM and inactive = higher.

Take a look at these entries with their results.
I am curious: what GI50 value has been reported for CC1(C)S[C@@H]2[C@H](N3C(=O)c4ccccc4C3=O)CN2[C@H]1NC(=O)N[C@@H]1N2C[C@@H](N3C(=O)c4ccccc4C3=O)[C@H]2SC1(C)C ?
73.3 µM (inactive)

// query GI50 value for entry Cc1cc(C)c(C#N)c(SC(=S)NC(=O)c2ccccc2)n1
> 100 µM (inactive)

Sample CCCc1nc(NC#N)nc(C(=O)NC23CC4CC(CC(C4)C2)C3)c1C — what was its GI50?
> 100 µM (inactive)

# get_value(readout='GI50', item= C/C(Cc1ccc2c(c1)OCO2)=N\NC(=O)C(C)Sc1nnc(SC(C)C(=O)N/N=C(\C)Cc2ccc3c(c2)OCO3)s1 (stereo not drawn) )
> 100 µM (inactive)

Request the reported GI50 associated with COc1cc(-c2ccc(/N=N/c3ccc4c(S(=O)(=O)O)cc(S(=O)(=O)O)c(N)c4c3O)c(OC)c2)ccc1/N=N/c1ccc2c(S(=O)(=O)O)cc(S(=O)(=O)O)c(N)c2c1O
> 100 µM (inactive)

Further cases:
Given O=C(O)Cc1ccc(Oc2nc3ccccc3nc2C(=O)O)cc1 , state its recorded GI50.
> 100 µM (inactive)

Name the reported GI50 value associated with the compound O=C(C[C@@H]1CCCN2CCCC[C@H]12)N1c2ccccc2Sc2ccc(Cl)cc21
16.6 µM (inactive)

Recorded GI50 for COc1ccc(N[C@H](C[S+]([O-])c2ccc(C)cc2)c2ccc(F)cc2)cc1 (stereo partly drawn) , please?
43 µM (inactive)
